In this section we review reported pIC50 values for a set of compounds.
# ASSAY SYSTEM: Human mTOR (FLAG-TOR) (Homo sapiens)
# Sequence (P42345 1360-2549 limits assumed): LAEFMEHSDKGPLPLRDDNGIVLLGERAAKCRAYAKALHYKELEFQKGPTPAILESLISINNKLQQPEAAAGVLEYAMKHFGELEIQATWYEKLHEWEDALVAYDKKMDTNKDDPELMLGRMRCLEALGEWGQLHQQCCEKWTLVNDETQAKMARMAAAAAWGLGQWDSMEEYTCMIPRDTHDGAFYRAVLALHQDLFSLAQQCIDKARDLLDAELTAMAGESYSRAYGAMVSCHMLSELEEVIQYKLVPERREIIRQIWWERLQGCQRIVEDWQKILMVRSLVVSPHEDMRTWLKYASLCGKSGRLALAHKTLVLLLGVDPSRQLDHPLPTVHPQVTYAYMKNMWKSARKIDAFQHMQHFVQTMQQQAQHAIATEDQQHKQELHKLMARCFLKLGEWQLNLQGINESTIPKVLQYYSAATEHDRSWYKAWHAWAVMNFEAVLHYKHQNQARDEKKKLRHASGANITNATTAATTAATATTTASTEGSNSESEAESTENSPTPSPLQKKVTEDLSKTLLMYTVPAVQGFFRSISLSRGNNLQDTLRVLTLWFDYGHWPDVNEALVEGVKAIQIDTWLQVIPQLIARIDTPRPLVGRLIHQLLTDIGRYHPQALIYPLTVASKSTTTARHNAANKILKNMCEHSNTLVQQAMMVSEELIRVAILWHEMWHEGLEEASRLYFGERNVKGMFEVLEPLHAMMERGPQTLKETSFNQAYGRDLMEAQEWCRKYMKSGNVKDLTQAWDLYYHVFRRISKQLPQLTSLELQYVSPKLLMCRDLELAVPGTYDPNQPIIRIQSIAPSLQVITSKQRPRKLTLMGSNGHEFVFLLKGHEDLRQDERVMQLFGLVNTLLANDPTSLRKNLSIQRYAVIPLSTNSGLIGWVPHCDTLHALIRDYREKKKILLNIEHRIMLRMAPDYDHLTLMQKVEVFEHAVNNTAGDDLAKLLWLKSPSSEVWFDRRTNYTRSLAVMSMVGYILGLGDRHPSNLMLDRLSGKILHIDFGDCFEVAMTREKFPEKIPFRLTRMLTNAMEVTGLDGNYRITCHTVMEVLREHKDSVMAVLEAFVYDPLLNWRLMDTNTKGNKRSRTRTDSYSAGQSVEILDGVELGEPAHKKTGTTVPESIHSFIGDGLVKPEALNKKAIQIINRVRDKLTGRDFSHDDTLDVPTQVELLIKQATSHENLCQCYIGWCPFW
# PROCEDURE SUMMARY: mTOR kinase assay (DELFIA format, purified enzyme)
# Assay type: biochemical
# MEASUREMENT CONTEXT: read-out: IC50 mTOR
Interpret pIC50 as the negative base-10 log of the concentration measured in mol/L.

Check out these entries, answers already filled in.
Prompt: Data request, read-out pIC50, for O=C(Nc1ccc(C(=O)N2CCCC2)cc1)Nc1ccc(-c2nc(C3CCOCC3)nc(N3C4CCC3COC4)n2)cc1
Completion: 9.15

Prompt: Query (compound): NC(=O)c1ccc(NC(=O)Nc2ccc(-c3nc(C4CCOCC4)nc(N4C5CCC4COC5)n3)cc2)cc1 ; field requested: pIC50
Completion: 9.70

Prompt: # input compound: CN(C)C1CCN(C(=O)c2ccc(NC(=O)Nc3ccc(-c4nc(N5CCOCC5)nc(N5CC6CCC5CO6)n4)cc3)cc2)CC1 (stereo not shown) ; wanted: its pIC50
Completion: 8.69

---
Prompt: Suppose we examine the compound CC(C)Nc1nc(-c2ccc(NC(=O)Nc3cccnc3)cc2)nc(N2C3CCC2COC3)n1 ; what pIC50 value has been reported?
Completion: 8.64

----------
Collected IC50 values appear next to each entry.
# ASSAY SYSTEM: PI3K-γ (Homo sapiens)
# Sequence (P48736 whole entry, species assumed): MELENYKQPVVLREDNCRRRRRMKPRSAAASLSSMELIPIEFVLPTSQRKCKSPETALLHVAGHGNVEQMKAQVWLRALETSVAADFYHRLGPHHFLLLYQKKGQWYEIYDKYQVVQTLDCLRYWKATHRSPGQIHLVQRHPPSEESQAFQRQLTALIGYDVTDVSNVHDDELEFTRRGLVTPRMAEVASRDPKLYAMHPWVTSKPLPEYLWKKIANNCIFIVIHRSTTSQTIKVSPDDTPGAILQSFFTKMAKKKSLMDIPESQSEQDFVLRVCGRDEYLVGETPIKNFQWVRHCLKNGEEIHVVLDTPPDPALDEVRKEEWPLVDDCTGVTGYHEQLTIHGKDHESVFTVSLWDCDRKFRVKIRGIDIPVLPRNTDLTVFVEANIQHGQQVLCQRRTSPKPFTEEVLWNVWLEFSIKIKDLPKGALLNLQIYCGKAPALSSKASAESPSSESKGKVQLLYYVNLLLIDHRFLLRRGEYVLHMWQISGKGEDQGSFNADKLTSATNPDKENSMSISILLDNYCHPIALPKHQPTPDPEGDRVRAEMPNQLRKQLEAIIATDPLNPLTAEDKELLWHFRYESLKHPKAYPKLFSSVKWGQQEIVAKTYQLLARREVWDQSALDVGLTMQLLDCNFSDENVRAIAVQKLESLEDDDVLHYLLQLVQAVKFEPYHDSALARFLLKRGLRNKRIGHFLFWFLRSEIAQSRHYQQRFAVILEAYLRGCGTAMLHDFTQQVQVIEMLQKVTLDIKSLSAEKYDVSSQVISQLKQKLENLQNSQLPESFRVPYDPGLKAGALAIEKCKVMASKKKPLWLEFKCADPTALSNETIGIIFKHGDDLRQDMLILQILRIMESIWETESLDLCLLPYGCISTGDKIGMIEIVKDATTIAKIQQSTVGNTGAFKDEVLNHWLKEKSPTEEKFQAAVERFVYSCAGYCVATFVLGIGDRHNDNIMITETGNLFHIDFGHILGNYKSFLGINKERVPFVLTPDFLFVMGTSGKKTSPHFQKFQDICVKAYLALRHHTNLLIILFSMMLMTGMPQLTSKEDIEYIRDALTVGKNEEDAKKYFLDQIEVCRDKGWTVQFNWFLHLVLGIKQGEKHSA
# PROCEDURE SUMMARY: PI3K-gamma fluorescence polarization assay
# MEASUREMENT CONTEXT: read-out: IC50 PI3Kγ

# count of solved cases: 6
Prompt: # input compound: CC(C)c1nc(-c2ccc(NC(=O)Nc3ccc(I)cc3)cc2)nc(N2CCOCC2)n1 ; wanted: its IC50
Completion: 1080 nM

Prompt: Name the reported IC50 value associated with the compound CN1CCN(c2nc(-c3ccc(NC(=O)Nc4cccnc4)cc3)nc(N3CC4CCC(C3)O4)n2)C1
Completion: 9500 nM

Prompt: // returns reported IC50 for input COC(=O)c1cccc(NC(=O)Nc2ccc(-c3nc(-c4cccs4)nc(N4CCOCC4)n3)cc2)c1
Completion: 1090 nM

Prompt: Given the compound CCS(=O)(=O)N1CCN(c2nc(-c3ccc(NC(=O)Nc4ccc(C(=O)NCCCN(C)C)cc4)cc3)nc(N3CCOCC3)n2)CC1 , what is its reported IC50?
Completion: 34 nM

Prompt: What measured IC50 goes with CC(C)N1CCN(C(=O)c2ccc(NC(=O)Nc3ccc(-c4nc(O[C@H]5CCOC5)nc(N5CCOCC5)n4)cc3)cc2)CC1 ?
Completion: 7.5 nM

Prompt: Look up IC50: CC(C)N1CCCN(c2nc(-c3ccc(NC(=O)Nc4ccc(C(=O)NCCN(C)C)cc4)cc3)nc(N3CCOCC3)n2)CC1
Completion: 168 nM

Further cases:
Prompt: Look at this compound and give its reported IC50. CCS(=O)(=O)N1CCN(c2nc(-c3ccc(NC(=O)Nc4ccc(C(=O)OC)cc4)cc3)nc(N3CCOCC3)n2)CC1
Completion: 248 nM

Prompt: Quick one: IC50 for CC(C)(C)Nc1nc(-c2ccc(NC(=O)Nc3cccnc3)cc2)nc(N2CC3CCC(C2)O3)n1 ?
Completion: 954 nM

----------
# ASSAY SYSTEM: UniProt:P42345
# PROCEDURE SUMMARY: mTOR kinase assay (DELFIA format, purified enzyme)
# Type: biochemical
# MEASUREMENT CONTEXT: read-out: IC50 mTOR
MEASURED ENDPOINT: pIC50
Units for pIC50: none; it is -log10 of a concentration expressed in mol/L.

Worked examples follow.
Prompt: Observed pIC50 on UniProt:P42345 for CC(C)(C)OC(=O)N1CCN(c2nc(-c3ccc(NC(=O)Nc4ccncc4)cc3)nc(N3CC4CCC(C3)O4)n2)CC1 , please.
Completion: 8.12

Prompt: Kindly state the measured pIC50 obtained for CCN1CCN(C(=O)c2ccc(NC(=O)Nc3ccc(-c4nc(N5CCOCC5)nc(N5CCN(C(=O)N(C)C)CC5)n4)cc3)cc2)CC1 with UniProt:P42345.
Completion: 8.22

Continuing:
Prompt: Can you look up pIC50 on UniProt:P42345 for COC(=O)Nc1ccc(-c2nc(-c3ccc(NC(=O)Nc4ccc(N5CCN(C)CC5)cc4)cc3)nc(N3CC4CCC(C3)O4)n2)cc1 ?
Completion: 8.05
